Recorded values, source the supplement of paper PMC12764529.

Measured folding stability dG unfold by item
experiment: folding stability dG unfold from chymotrypsin proteolysis; higher = more stable
Please give a number only; it is taken to be in kcal/mol.

The examples below pair each entry with its known result.
| sequence input | measurement name | quantitative readout |
| --- | --- | --- |
| SAMVLDLTELLREKAAEIRKADPRPLTPEELRELAREAAEELAKETGKPITEIRVEETDEWPRITAVVLSAG [r14_147_JUSTAS] | folding stability dG unfold | -0.358 |
| SAGGELLEDLNIKEIEVTEVKTYRNPENGMRMYEPTLTIKNPDGEKIKFTIEHMYDPGNPKPMIHIMSAGGS [r8_422_TrROS] | folding stability dG unfold | -0.212 |
| SAGGSAGGSAGGKEYKLVKVKVKVEITLPKGSELLKKLGLSEEDVKFEFELEVVVLVKPSAGGSAGGSAGGS [r10_82_TrROS_Hall] | folding stability dG unfold | 3.93 |
| SAGGSAGGSGSMKVYTHNVPPGQELTITITRGSSSTTLTFPPNTTVTITVPTSSPATITLTAPSAGGSAGGS [r12_550_JUSTAS] | folding stability dG unfold | 1.87 |

Query: Using known records, supply folding stability dG unfold for SAGGSAGGVISEEEIEAKAEEAKAEAIAAGLESKEVTITSPSGKVYKITVDVNSITIEKSPAAGSAGGSAGG [r6_270_JUSTAS]
Reply: 0.743

Query: Using known records, supply folding stability dG unfold for SAYIQIERDPDGYIKIEVWFDSPDEGKEFVKEFVKELADQGLDIKIKVTKIEPYPGDPNMYRVSYTIKVSAG [r14_119_TrROS]
Reply: 3.86

Query: Using known records, supply folding stability dG unfold for SPPGWKVIPITLKFRAPIKSVEEAKSQVREIAREIANRHGFPIQVNVTVEYDPEDGWVKVEVPISIWVPKSA [r9_741_TrROS]
Reply: 3.23
